- measured-on: T1, human MSLN-hFc protein (Acro, Cat. No. MSN-H5253) (human, UniProt Q13421 296-580)
- T1 construct: the method names the coated protein as human MSLN-hFc (Acro); also called human MSLN full-length protein
- run-description: ELISA on coated antigen, antibody 0.1 nM
value-type: OD450 (OD450)
State the answer as a number, implicitly in OD450.

Study these solved cases before continuing.
binder="F7.44.20-H9 (scFv, not shown: small tags and cut ends, also called S009-F7.44.20 humanized antibody VH2 + VL1) scFv: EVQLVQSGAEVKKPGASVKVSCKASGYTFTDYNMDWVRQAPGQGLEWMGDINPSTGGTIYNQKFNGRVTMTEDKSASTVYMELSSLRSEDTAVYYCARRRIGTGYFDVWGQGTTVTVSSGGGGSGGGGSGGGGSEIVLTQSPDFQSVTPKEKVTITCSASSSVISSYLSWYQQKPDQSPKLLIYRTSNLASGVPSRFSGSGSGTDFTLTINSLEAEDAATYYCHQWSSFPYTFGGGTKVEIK" display_unit=OD450 reported_result=0.19
binder="F7.44.20-H12 (scFv, not shown: small tags and cut ends, also called S009-F7.44.20 humanized antibody VH2 + VL4) scFv: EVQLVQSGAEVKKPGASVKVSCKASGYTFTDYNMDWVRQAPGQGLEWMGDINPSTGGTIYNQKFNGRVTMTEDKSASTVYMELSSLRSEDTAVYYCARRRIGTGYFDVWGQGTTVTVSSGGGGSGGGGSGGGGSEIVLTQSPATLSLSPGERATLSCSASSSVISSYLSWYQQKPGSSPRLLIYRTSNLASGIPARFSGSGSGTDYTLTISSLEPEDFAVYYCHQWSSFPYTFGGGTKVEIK" display_unit=OD450 reported_result=0.16
binder="F7.44.20-H7 (scFv, not shown: small tags and cut ends, also called S009-F7.44.20 humanized antibody VH1a + VL3) scFv: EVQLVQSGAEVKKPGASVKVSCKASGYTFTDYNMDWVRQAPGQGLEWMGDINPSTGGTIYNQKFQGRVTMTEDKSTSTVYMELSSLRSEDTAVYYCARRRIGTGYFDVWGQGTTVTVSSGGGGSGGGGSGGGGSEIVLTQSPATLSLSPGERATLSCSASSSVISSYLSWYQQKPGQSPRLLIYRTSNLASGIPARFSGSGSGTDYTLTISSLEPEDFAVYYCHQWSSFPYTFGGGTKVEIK" display_unit=OD450 reported_result=0.3
binder="F7.44.20-H3 (scFv, not shown: small tags and cut ends, also called S009-F7.44.20 humanized antibody VH1 + VL3) scFv: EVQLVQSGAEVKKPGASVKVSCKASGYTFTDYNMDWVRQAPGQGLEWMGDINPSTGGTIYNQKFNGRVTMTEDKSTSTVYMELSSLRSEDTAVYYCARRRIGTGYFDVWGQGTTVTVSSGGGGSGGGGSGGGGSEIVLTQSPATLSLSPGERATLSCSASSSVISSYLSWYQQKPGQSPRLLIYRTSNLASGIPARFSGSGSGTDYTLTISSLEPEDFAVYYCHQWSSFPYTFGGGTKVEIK" display_unit=OD450 reported_result=0.15
binder="F7.44.20-H15 (scFv, not shown: small tags and cut ends, also called S009-F7.44.20 humanized antibody VH2a + VL3) scFv: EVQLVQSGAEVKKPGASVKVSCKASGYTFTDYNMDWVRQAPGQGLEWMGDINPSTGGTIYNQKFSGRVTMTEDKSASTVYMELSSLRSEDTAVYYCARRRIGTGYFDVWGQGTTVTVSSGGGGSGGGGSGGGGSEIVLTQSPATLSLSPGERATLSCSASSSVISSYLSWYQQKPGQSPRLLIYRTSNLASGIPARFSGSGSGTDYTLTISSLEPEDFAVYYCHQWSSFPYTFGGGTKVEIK" display_unit=OD450 reported_result=0.19

Proceed to the following item.
Report measured OD450; entry is F7.44.20-H11 (scFv, not shown: small tags and cut ends, also called S009-F7.44.20 humanized antibody VH2 + VL3) scFv: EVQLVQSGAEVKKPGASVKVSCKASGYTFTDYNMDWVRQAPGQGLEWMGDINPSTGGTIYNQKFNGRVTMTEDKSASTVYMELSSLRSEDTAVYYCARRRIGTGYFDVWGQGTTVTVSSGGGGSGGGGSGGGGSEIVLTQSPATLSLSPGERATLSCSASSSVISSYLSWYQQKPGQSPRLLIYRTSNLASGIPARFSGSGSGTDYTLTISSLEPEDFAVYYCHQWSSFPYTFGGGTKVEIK 0.27
